# System: HCV 1a Y93H replicon
# METHOD_DESCRIPTION: Cell-based HCV replicon assay (TaqMan), 1a Y93H mutant replicon
# TEST_PARAMETERS: read-out: 1a Y93H EC90; HCV 1a Y93H mutant replicon cells, replicon RNA by real time PCR, day 3; EC90 = concentration for ΔCT=3.2 over baseline
MEASURE_NAME: EC90 (nM)
// note: answer is a bare numeric in nM

[[record]]
compound = "COC(=O)N[C@H](C(=O)N1C[Si](C)(C)C[C@H]1c1nc2ccc3cc(-c4ccc(-c5cnc([C@@H]6C[C@H]7C[C@H]7N6C(=O)[C@@H](NC(=O)OC)C(C)C)[nH]5)cc4)ccc3c2[nH]1)C(C)C [Compound 105]"
numeric_result = 605


If you can, please state the reported EC90 value of CC[C@H](C)[C@H](NC(=O)OC)C(=O)N1C[Si](C)(C)C[C@H]1c1ncc(-c2ccc(-c3ccc4c(ccc5nc([C@@H]6CCCN6C(=O)[C@@H](NC(=O)OC)[C@@H](C)CC)[nH]c54)c3)cc2)[nH]1 [Compound 47] .
953

###

# Tested on: HCV 1a replicon
# METHOD_DESCRIPTION: Cell-based HCV replicon assay (TaqMan), genotype 1a replicon
# TEST_PARAMETERS: Hepatitis C virus, 72 h, HCV genotype 1a replicon cells, replicon RNA by real time PCR, day 3; EC90 = concentration for ΔCT=3.2 over baseline
Parameter: EC90. Scope: all listed entries.
Give just the numeric value; nM need not be written.

[[record]]
compound_structure = "COC(=O)N[C@H](C(=O)N1C[Si](C)(C)C[C@H]1c1nc2ccc3cc(-c4ccc(-c5cnc([C@@H]6CCCN6C(=O)[C@@H](NC(=O)OC)[C@@H](C)OC)[nH]5)cc4)ccc3c2[nH]1)C(C)C"
units_label = "nM"
numeric_result = 0.28


// next entry
What value of EC90 has been recorded for this entry: COC(=O)N[C@H](C(=O)N1CCC[C@H]1c1ncc(-c2ccc(-c3ccc4c(ccc5nc([C@@H]6C[Si](C)(C)CN6C(=O)[C@@H](NC(=O)OC)[C@@H](C)OC)[nH]c54)c3)cc2)[nH]1)C(C)C
0.21

###

Collected EC90 values appear next to each entry.
# System: HCV 1a replicon
# METHOD_DESCRIPTION: Cell-based HCV replicon assay (TaqMan), genotype 1a replicon
# TEST_PARAMETERS: Hepatitis C virus, 72 h, HCV genotype 1a replicon cells, replicon RNA by real time PCR, day 3; EC90 = concentration for ΔCT=3.2 over baseline
Field format: number, assumed nM, no unit text.

[[record]]
compound_structure = "COC(=O)N[C@H](C(=O)N1CCC[C@H]1c1ncc(-c2ccc(-c3ccc4c(ccc5nc([C@@H]6C[Si](C)(C)CN6C(=O)[C@H]6COCCN6C(=O)OC)[nH]c54)c3)cc2)[nH]1)C(C)C"
target_desc = "HCV 1a replicon"
numeric_result = 5.1

[[record]]
compound_structure = "COC(=O)N[C@@H](Cn1cccn1)C(=O)N1C[Si](C)(C)C[C@H]1c1nc2ccc3cc(-c4ccc(-c5cnc([C@@H]6CCCN6C(=O)[C@@H](NC(=O)OC)C(C)C)[nH]5)cc4)ccc3c2[nH]1"
target_desc = "HCV 1a replicon"
numeric_result = 0.39


Next, consider the following compound.
Give its EC90 value. Item: COC(=O)N[C@H](C(=O)N1C[Si](C)(C)C[C@H]1c1nc2ccc3cc(-c4ccc(-c5cnc([C@@H]6C[C@H]7C[C@H]7N6C(=O)[C@@H](NC(=O)OC)C6CCOCC6)[nH]5)cc4)ccc3c2[nH]1)C1CCOCC1
0.14
